- PROCEDURE DETAILS: Plasma pharmacokinetics in patients
- Type: in vivo, human
- CONDITION SET: human, plasma, oral, 130 mg, Cmax, geometric mean, Day 1, 130 mg QD, 3 patients
EXPERIMENTAL READOUT: Cmax (nM)
Note: unit nM is implicit; provide only the numeric part.

Ask: Query (compound): CS(=O)(=O)N1CCN(Cc2cc3nc(-c4cccc5[nH]ncc45)nc(N4CCOCC4)c3s2)CC1 [pictilisib] ; field requested: Cmax
Reply: 359

----------
- PROCEDURE DETAILS: Plasma pharmacokinetics in patients
- Type: in vivo, human
- CONDITION SET: human, plasma, oral, 330 mg, Tmax, median, Day 15, 330 mg QD, 17 patients
EXPERIMENTAL READOUT: Tmax (h)
Note: unit h is implicit; provide only the numeric part.

Ask: Query (compound): CS(=O)(=O)N1CCN(Cc2cc3nc(-c4cccc5[nH]ncc45)nc(N4CCOCC4)c3s2)CC1 ; field requested: Tmax
Reply: 3
